biological target: 5HT6-human recombinant receptor (Homo sapiens); assay: Binding to serotonin receptor 5-HT6 ([3H]-LSD radioligand displacement); details: membranes of HEK-293 cells expressing the receptor; radioligand [3H]-LSD 2.7 nM; 60 minutes at 37° C; triplicate
Criterion: Ki strictly less than 500 nM. Met: satisfied. Not met: not satisfied.

Examples from the recorded data:
>>> class_assignment("O=[N+]([O-])c1ccc(N2CCNCC2)cc1NCc1cccnc1 [Example 26]")
"not satisfied"
>>> class_assignment("CN1CCN(c2ccc([N+](=O)[O-])c(NCCc3ccccc3)c2)CC1 [Example 23]")
"satisfied"

Is Ki strictly under 500 nM for the entry O=[N+]([O-])c1ccc(N2CCNCC2)cc1NCc1ccc(Cl)cc1 [Example 52] ?
satisfied

Is Ki strictly under 500 nM for the entry Cc1cc(C)n(-c2cc(N3CCNCC3)ccc2[N+](=O)[O-])n1 [Example 32] ?
satisfied

Is Ki strictly under 500 nM for the entry O=[N+]([O-])c1ccc(N2CCN(CCO)CC2)cc1NCCc1ccccc1 [Example 12] ?
not satisfied

Is Ki strictly under 500 nM for the entry CC(Nc1cc(N2CCN(C)CC2)ccc1[N+](=O)[O-])c1ccccc1 (centres unmarked) [Example 59] ?
satisfied

Is Ki strictly under 500 nM for the entry O=[N+]([O-])c1ccc(N2CCNCC2)cc1NCc1ccco1 [Example 57] ?
satisfied

====

target: 5HT6-human recombinant receptor (Homo sapiens); experiment: Binding to serotonin receptor 5-HT6 ([3H]-LSD radioligand displacement); details: membranes of HEK-293 cells expressing the receptor; radioligand [3H]-LSD 2.7 nM; 60 minutes at 37° C; triplicate
Entries and their pKi
The meaning of pKi here: minus log10 of the concentration in molar units.

Check out these entries, answers already filled in.
>>> measured_result("Cc1ccccc1OCCNc1cc(N2CCN(C)CC2)ccc1[N+](=O)[O-]")
7.58
>>> measured_result("O=[N+]([O-])c1ccc(N2CCNCC2)cc1NCCOc1ccc(Cl)cc1")
6.54
>>> measured_result("CN1CCN(c2ccc([N+](=O)[O-])c(-n3nc(-c4ccccc4)c4ccccc4c3=O)c2)CC1 [Example 31]")
5.77
>>> measured_result("CN1CCN(c2ccc([N+](=O)[O-])c(NCc3ccc(Cl)cc3)c2)CC1")
7.23
>>> measured_result("CN1CCN(c2ccc([N+](=O)[O-])c(NCCOc3ccc(C(C)(C)C)cc3)c2)CC1")
7.10
>>> measured_result("O=[N+]([O-])c1ccc(N2CCN(Cc3ccccc3)CC2)cc1NCc1ccccc1")
7.46
>>> measured_result("COc1ccccc1OCCNc1cc(N2CCN(C)CC2)ccc1[N+](=O)[O-]")
7.72

In one line, give reported pKi of the entry `COc1ccc(OCCNc2cc(N3CCN(C)CC3)ccc2[N+](=O)[O-])cc1` .
6.61

====

biological target: 5HT6-human recombinant receptor (Homo sapiens); test: Binding to serotonin receptor 5-HT6 ([3H]-LSD radioligand displacement); conditions: membranes of HEK-293 cells expressing the receptor; radioligand [3H]-LSD 2.7 nM; 60 minutes at 37° C; triplicate
pKi: −log10 of the molar value.
Mark label 1 for reported pKi of 6 or greater; mark label 0 for anything smaller.

Examples from the recorded data:
>>> class_assignment("CN1CCN(c2ccc([N+](=O)[O-])c(Nn3cccc3)c2)CC1")
"label 1"
>>> class_assignment("O=[N+]([O-])c1ccc(N2CCNCC2)cc1NCCc1ccccc1")
"label 1"
>>> class_assignment("CN1CCN(c2ccc([N+](=O)[O-])c(NCc3ccc(F)cc3)c2)CC1")
"label 1"

State whether the measured pKi reaches 6, counting equality as reaching it, for `CN1CCN(c2ccc([N+](=O)[O-])c(N3CCOCC3)c2)CC1`
label 0

====

Entries and their pKi
biological target: 5HT6-human recombinant receptor (Homo sapiens, UniProt P50406); test: Binding to serotonin receptor 5-HT6 ([3H]-LSD radioligand displacement); conditions: membranes of HEK-293 cells expressing the receptor; radioligand [3H]-LSD 2.7 nM; 60 minutes at 37° C; triplicate
Sequence (P50406 whole entry): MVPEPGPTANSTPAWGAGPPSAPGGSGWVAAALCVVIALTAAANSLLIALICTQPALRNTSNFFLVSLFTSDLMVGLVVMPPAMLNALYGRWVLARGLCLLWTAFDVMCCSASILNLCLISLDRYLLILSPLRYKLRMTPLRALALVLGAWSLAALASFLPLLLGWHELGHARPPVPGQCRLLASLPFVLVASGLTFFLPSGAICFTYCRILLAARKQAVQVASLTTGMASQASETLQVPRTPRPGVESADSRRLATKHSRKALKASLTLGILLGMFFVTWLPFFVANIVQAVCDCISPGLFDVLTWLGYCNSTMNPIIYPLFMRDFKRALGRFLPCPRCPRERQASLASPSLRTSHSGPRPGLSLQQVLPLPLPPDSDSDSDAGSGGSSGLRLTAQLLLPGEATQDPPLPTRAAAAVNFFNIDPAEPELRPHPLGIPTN
The meaning of pKi here: minus log10 of the concentration in molar units.

>>> measured_result("Cc1cc(C)n(-c2cc(N3CCN(C)CC3)ccc2[N+](=O)[O-])n1")
6.60
>>> measured_result("CC1CN(c2ccc([N+](=O)[O-])c(NCCOc3ccc(Cl)cc3)c2)CC(C)N1 (stereo not shown)")
5.30
>>> measured_result("CN1CCN(c2ccc([N+](=O)[O-])c(Oc3ccccc3)c2)CC1")
7.58
>>> measured_result("O=[N+]([O-])c1ccc(N2CCNCC2)cc1NCCOc1ccccc1")
6.94
>>> measured_result("O=[N+]([O-])c1ccc(N2CCNCC2)cc1N1CCN(Cc2ccccc2)CC1")
5.42

In one line, give reported pKi of the entry `CN1CCN(c2ccc([N+](=O)[O-])c(NC(c3ccccc3)c3ccccc3)c2)CC1` .
5.35

In one line, give reported pKi of the entry `Cc1ccccc1OCCNc1cc(N2CCNCC2)ccc1[N+](=O)[O-]` .
6.79

In one line, give reported pKi of the entry `CN1CCN(c2ccc([N+](=O)[O-])c(NCc3cccnc3)c2)CC1` .
5.90

In one line, give reported pKi of the entry `CN1CCN(c2ccc([N+](=O)[O-])c(NCc3ccco3)c2)CC1` .
7.21

In one line, give reported pKi of the entry `O=[N+]([O-])c1ccc(N2CCNCC2)cc1NCc1ccccc1` .
7.56
